# TARGET: anti-A001 antibody (TGFbeta1 PET)
# PROTOCOL: peptide competition assay in 6% BSA
Where no end group is shown, it is not given here.
PROPERTY MEASURED: pIC50
Here pIC50 is given on a logarithmic scale as minus log10 of the concentration in mol/L.

Query: Fill in: pIC50 of Ac-ALYNQHNPGASAAPC [A001 peptide (TGFbeta1), Ac-…] is ___
Response: 9.10

Entry source: patent US20060014212A1
